assay.notes: basal RPMI8226 mitochondrial membrane potential changes, profiling panel, cell-based, JC-1 fluorescence, 24 h, 100 nL compound (AID 1169); further: test concentration not given here
study.conditions: RPMI8226 myeloma, JC-1 mitochondrial potential fluorescence, higher = more signal
Kindly state z-score for each of the entries shown.

Solved cases (6 shown):
[[record]]
molecule = "CCOC(=O)C[C@H]1[C@H](OC(=O)c2ccc(C(=O)c3ccccc3)cc2)[C@@H](NC(=O)Cc2ccc(OC)cc2)c2cc(OCCCO)ccc2N1C(=O)Cc1ccc(OC)cc1"
data_value = -0.131

[[record]]
molecule = "O=C1N(CCS(=O)(=O)c2ccccc2)Cc2ccccc2[C@@H]2OC(c3ccc(OCCCO)cc3)=N[C@]12Cc1ccccc1"
data_value = -1.11

[[record]]
molecule = "O=C1O[C@H](c2ccccc2)[C@H](c2ccccc2)N2[C@H]1[C@@H](C(=O)NC[C@H](O)c1ccccc1)[C@]1(C(=O)Nc3ccc(C#CC4(O)CCCCCC4)cc31)[C@H]2c1ccc(O)cc1"
data_value = -0.672

[[record]]
molecule = "COC(=O)[C@@]1(CCC(=O)OC(C)(C)C)COC(c2ccc(OCCCO)cc2)=N1"
data_value = 0.614

[[record]]
molecule = "O=C(O)[C@H]1C[C@H]2C(=O)NCC(=O)N2[C@H]1c1cccc(OCCO)c1"
data_value = -0.186

[[record]]
molecule = "C=CCC(OC(C)=O)[C@@H]1[C@@H](N(Cc2cccc3ccccc23)C(=O)Cc2ccc(OC)cc2)c2cc(OCCCO)ccc2N1C(=O)Cc1ccc(OC)cc1 (some centres not stated)"
data_value = -0.44


Field: next molecule
Entry under review: CCCCCCC#C[Si](O[C@H](c1ccccc1)c1cn(Cc2ccccc2)nn1)(C(C)C)C(C)C . Reported z-score? 0.548

###

assay.notes: small-molecule binders of probe aNOTCH3, primary screen, biochemical, small-molecule microarray, 635/667 nm fluorescence (AID 1120);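 further: probe is a biotin-tagged antibody raised against NOTCH3 rather than NOTCH3 protein; score merges spot fluorescence near 667 nm with spot signal to noise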
study.conditions: higher = more signal
Decision: composite z-score compared against -0.2; not below it gives y, below it gives n.

Look over these answered cases.
[[record]]
compound = "C=CC[C@]1(C(=O)N2CCCCC2)COC(c2ccc(OCCCO)cc2)=N1"
qualitative_label = "y"

[[record]]
compound = "C=CCNC(=O)[C@H]1[C@@H]2C(=O)O[C@@H](c3ccccc3)[C@@H](c3ccccc3)N2[C@@H](c2ccc(OCCO)cc2)[C@]12C(=O)Nc1ccc(C#CCCO)cc12"
qualitative_label = "y"

[[record]]
compound = "CC(C)C(=C=CC[C@@H](O)c1ccc(CO)o1)CCO"
qualitative_label = "y"

[[record]]
compound = "CCCCCN1CC=CC23O[C@@H]4/C=C\\CCC(C)OC(=O)C4[C@H]2C(=O)N(CCCO)[C@@H]3C1=O (stereo partly drawn)"
qualitative_label = "n"

[[record]]
compound = "CO[C@H]1O[C@H](CO)[C@@H](OC(=O)CCc2ccccc2)[C@@H]2OC(=O)[C@H](Cc3ccccc3)C/C=C/C[C@@H](Cc3ccccc3)C(=O)O[C@@H]12"
qualitative_label = "y"

[[record]]
compound = "COc1ccc(CCNC(=O)[C@@]2(Sc3ccc(C)cc3)CC(=O)N(Cc3ccccc3)[C@@H]2c2ccc(CO)cc2I)cc1"
qualitative_label = "n"

[[record]]
compound = "CC(C)N1CC=CC23O[C@@H]4/C=C\\CCCOC(=O)C4[C@H]2C(=O)N(CCCO)[C@@H]3C1=O (stereo partly drawn)"
qualitative_label = "n"


As a next step, examine the compound that follows.
Determine whether measured composite z-score meets or exceeds -0.2 for C=C(CCCC)/C(=C/C[C@H](OC(=O)c1ccncc1)c1ccc(CO)o1)c1cnc2ccccc2c1 y

###

measurement.target: Torsin-1A (Homo sapiens)
assay.notes: small-molecule binders of mutant TOR1A in lysate, primary screen, cell lysate, small-molecule microarray, COS7 lysate, 635/667 nm fluorescence (AID 1150);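 further: score pools 667 nm emission and signal to noise measuring lysate protein binding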
study.conditions: COS7 hTOR1A mutant lysate, 635 nm fluorescence, higher = more signal
Decision: composite z-score compared against 0.7; not below it gives met, below it gives not met.

Look over these answered cases.
[[record]]
compound = "CC(C)C[C@@H]1NC(=O)[C@H]2C[C@@H](C(=O)NCCCC[N+](C)(C)C)[C@@H](c3cccc(OCCO)c3)N2C1=O"
qualitative_label = "not met"

[[record]]
compound = "COc1ccc([Si](C)(C)[C@H]2[C@H](CCO)O[C@@]3(C(=O)N(Cc4ccc(N5C(=O)c6cccc7cccc5c67)cc4)c4ccccc43)[C@@H]2C)cc1"
qualitative_label = "not met"

[[record]]
compound = "Cc1ccc(S[C@]2(C(=O)NCC(C)C)CC(=O)N(C(C)C)[C@@H]2c2ccc(CO)cc2)cc1"
qualitative_label = "not met"

[[record]]
compound = "[N-]=[N+]=NCc1ccccc1C[C@@]1(C(=O)NCc2ccccc2)N=C(c2ccc(OCCCO)cc2)O[C@@H]1c1ccccc1"
qualitative_label = "met"

[[record]]
compound = "CN(C)CCCC[C@@H]1NC(=O)[C@@H]2C[C@H](C(=O)NCCCCCNC(=O)CS)[C@H](c3cccc(OCCO)c3)N2C1=O"
qualitative_label = "not met"


Determine whether measured composite z-score meets or exceeds 0.7 for COc1ccc(C#Cc2ccc3c(c2)[C@]2(C(=O)N3)[C@H](c3ccc(O)cc3)N3[C@H](c4ccccc4)[C@H](c4ccccc4)OC(=O)[C@H]3[C@@H]2C(N)=O)cc1 not met

Determine whether measured composite z-score meets or exceeds 0.7 for COCCCNC(=O)[C@@]1(CCS(=O)(=O)c2ccccc2)N=C(c2ccc(OCCCO)cc2)O[C@H]1c1ccccc1CN=[N+]=[N-] not met

Determine whether measured composite z-score meets or exceeds 0.7 for O=C1O[C@H](c2ccccc2)[C@H](c2ccccc2)N2[C@H]1[C@@H](C(=O)Nc1nc3ccccc3s1)[C@]1(C(=O)Nc3ccc(C#CCCO)cc31)[C@H]2c1ccccc1OCCO met

Determine whether measured composite z-score meets or exceeds 0.7 for C=CCC(OC(C)=O)[C@@H]1[C@@H](N(Cc2cc3ccccc3o2)C(=O)c2ccc(-c3ccccc3)cc2)c2cc(OCCCO)ccc2N1C(=O)c1ccc(-c2ccccc2)cc1 (some centres undefined) not met

Determine whether measured composite z-score meets or exceeds 0.7 for O=C(N1CCCCC1)[C@@]1(Cc2ccccc2)N=C(c2ccc(OCCCO)cc2)O[C@H]1c1ccccc1 met

Determine whether measured composite z-score meets or exceeds 0.7 for C[C@@H](OCc1ccccc1)C1NC(=O)[C@@]23C(=O)N[C@@H](Cc4ccccc4)C2[C@H](C)[C@@]2(C)O[C@H]2C3/C=C/C/C=C\CNC(=O)[C@@H]2CCCN2C1=O (some centres undefined) met

Determine whether measured composite z-score meets or exceeds 0.7 for C=C(C1=CCN(S(=O)(=O)c2ccc(C)cc2)C1)[C@@H](OC(C)=O)[C@@H]1CCCN1S(=O)(=O)c1ccccc1[N+](=O)[O-] not met

###

measurement.target: Homeobox protein Hox-A13 (Mus musculus) (UniProt Q62424)
Sequence (Q62424 whole entry, looked up): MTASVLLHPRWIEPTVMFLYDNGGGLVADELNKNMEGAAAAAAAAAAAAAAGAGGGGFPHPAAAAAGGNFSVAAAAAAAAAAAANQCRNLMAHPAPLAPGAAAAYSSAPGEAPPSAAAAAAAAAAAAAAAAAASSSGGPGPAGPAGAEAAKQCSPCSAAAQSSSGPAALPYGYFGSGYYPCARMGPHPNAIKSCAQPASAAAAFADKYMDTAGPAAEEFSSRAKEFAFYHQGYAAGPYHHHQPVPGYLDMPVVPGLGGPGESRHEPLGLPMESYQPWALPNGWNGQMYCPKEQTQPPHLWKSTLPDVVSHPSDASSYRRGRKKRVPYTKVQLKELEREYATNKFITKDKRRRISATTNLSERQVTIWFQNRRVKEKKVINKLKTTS
assay.notes: inhibitors of HoxA13-DNA binding, primary screen, biochemical, fluorescence polarization, labeled oligonucleotide (AID 1185)
study.conditions: 15 min, higher = more signal, called active from +8 up or from −8 down
Decision: z-score compared against -3; not below it gives Yes, below it gives No.

Look over these answered cases.
[[record]]
smiles_data = "C=CCNC(=O)[C@H]1[C@@H]2C(=O)O[C@@H](c3ccccc3)[C@@H](c3ccccc3)N2[C@@H](c2ccc(OCCO)cc2)[C@]12C(=O)Nc1ccc(C#CCCO)cc12"
qualitative_label = "No"

[[record]]
smiles_data = "CCOC(=O)C[C@H]1[C@H](OC(=O)c2cc3ccccc3oc2=O)[C@@H](NC(=O)c2ccccc2)c2cc(OCCCO)ccc2N1C(=O)Cc1ccc(OC)cc1"
qualitative_label = "Yes"

[[record]]
smiles_data = "O=C(O)[C@H]1C[C@H]2C(=O)NCC(=O)N2[C@H]1c1cccc(OCCO)c1"
qualitative_label = "No"

[[record]]
smiles_data = "O=C(NCC(F)(F)F)[C@@H]1c2ccccc2C(=O)N(C2Cc3ccccc3C2)[C@H]1c1ccc(CO)cc1"
qualitative_label = "Yes"

[[record]]
smiles_data = "C=CCN1C(=O)[C@@]2(O[C@@H](CCn3cc(CCO)nn3)[C@H]([Si](C)(C)c3ccc(OC)cc3)[C@H]2C)c2cc(NC(=O)c3ccc(OC)cc3)ccc21"
qualitative_label = "No"


Determine whether measured z-score meets or exceeds -3 for CCCCC(=C=CC[C@H](O)c1cccc(OCCO)c1)CCO Yes

Determine whether measured z-score meets or exceeds -3 for Cc1ccc(S[C@]2(C(=O)NC3CC3)CC(=O)N(Cc3ccccc3C(F)(F)F)[C@@H]2c2ccc(CO)cc2I)cc1 Yes

###

measurement.target: Fibroblast growth factor 2 (Homo sapiens)
assay.notes: FGF2 binders on small-molecule microarrays, primary screen, biochemical, small-molecule microarray, 635/667 nm fluorescence (AID 1133)
study.conditions: small-molecule microarray binding, FGF2, fluorescence 635/667; higher = more signal
Decision: composite z-score compared against 0.9; not below it gives rule met, below it gives rule not met.

[[record]]
compound = "CC(=O)NCCCC[C@@H]1NC(=O)[C@@H]2C[C@H](C(=O)O)[C@H](c3cccc(OCCO)c3)N2C1=O"
qualitative_label = "rule met"

[[record]]
compound = "COc1ccc([Si](C)(C)[C@H]2[C@H](CC(=O)N3Cc4ccccc4C[C@H]3CO)O[C@@]3(C(=O)N(Cc4cccc(N5C(=O)COc6ccccc65)c4)c4ccccc43)[C@@H]2C)cc1"
qualitative_label = "rule met"

[[record]]
compound = "CC(C)[Si](C#C[Si](C(C)C)(C(C)C)C(C)C)(O[C@H](C)c1cn([C@H](C)c2ccccc2)nn1)C(C)C"
qualitative_label = "rule not met"

[[record]]
compound = "CCCCC(=C=CC[C@@H](O)c1ccc(OCCO)cc1)C[C@@H](O)c1cc(Cl)cc(Cl)c1O"
qualitative_label = "rule not met"

[[record]]
compound = "NCCCCCCNC(=O)[C@@H]1C[C@@H]2C(=O)N[C@@H](Cc3ccccc3)C(=O)N2[C@@H]1c1ccc(O)cc1"
qualitative_label = "rule not met"


Determine whether measured composite z-score meets or exceeds 0.9 for C=C(COC)C(=O)CC[C@@H](OC(=O)c1ccccc1-c1ccccc1C(=O)O)c1cccc(OCCO)c1 rule not met

Determine whether measured composite z-score meets or exceeds 0.9 for CC(C)(C)OC(=O)CC[C@]1(C(=O)NCc2ccccc2)COC(c2ccc(OCCCO)cc2)=N1 rule not met

Determine whether measured composite z-score meets or exceeds 0.9 for CC(C)C(=C=CC[C@H](O)c1ccc(OCCO)cc1)C[C@H](O)COCc1ccccc1 rule met

Determine whether measured composite z-score meets or exceeds 0.9 for COC(=O)C(CC#Cc1ccc2c(c1)[C@]1(C(=O)N2)[C@H](C(=O)O)[C@H]2C(=O)O[C@H](c3ccccc3)[C@H](c3ccccc3)N2[C@@H]1c1ccc(OCCO)cc1)C(=O)OC rule not met

Determine whether measured composite z-score meets or exceeds 0.9 for C#CCOc1ccc(C[C@H]2C(=O)O[C@H](Cc3ccccc3)[C@H](/C=C/C3CC3)N2CC#C)cc1 rule not met

Determine whether measured composite z-score meets or exceeds 0.9 for CCOC(=O)C[C@H]1[C@H](OC(=O)Cc2ccc3c(c2)OCO3)[C@@H](NC(=O)c2ccc3ccccc3c2)c2cc(OCCCO)ccc2N1C(=O)c1ccc2ccccc2n1 rule not met

Determine whether measured composite z-score meets or exceeds 0.9 for C=CCC(OC(C)=O)[C@@H]1[C@@H](N(Cc2cccc3ccccc23)C(=O)Cc2ccc(OC)cc2)c2cc(OCCCO)ccc2N1C(=O)Cc1ccc(OC)cc1 (some centres undefined) rule not met

Determine whether measured composite z-score meets or exceeds 0.9 for CC(C)(C)OC(=O)CC[C@@]12N=C(c3ccc(OCCCO)cc3)O[C@@H]1c1ccccc1CN(Cc1ccccc1)C2=O rule met

Determine whether measured composite z-score meets or exceeds 0.9 for C[N+](C)(C)CCCC[C@@H]1NC(=O)[C@H]2C[C@@H](C(=O)NCCCCCN)[C@@H](c3cccc(OCCO)c3)N2C1=O rule not met

Attribution: PubChem BioAssay
